Catalogue of pIC50 values
tested-on: Dihydropteridine reductase (Rattus norvegicus, UniProt P11348)
Sequence (P11348 whole entry): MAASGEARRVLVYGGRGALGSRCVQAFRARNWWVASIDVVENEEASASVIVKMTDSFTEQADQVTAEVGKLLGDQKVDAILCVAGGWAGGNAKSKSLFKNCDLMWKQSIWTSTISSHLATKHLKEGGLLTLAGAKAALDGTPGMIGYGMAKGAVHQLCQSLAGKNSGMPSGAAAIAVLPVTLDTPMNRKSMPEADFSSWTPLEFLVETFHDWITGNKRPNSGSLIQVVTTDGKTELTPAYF
assay-explanation: Inhibitory activity against rat striatal synaptosomes Dihydropteridine reductase (DHPR)
Type: subcellular, Brain
condition-details: read-out: I50
pIC50: −log10 of the molar value.
reported-endpoint: pIC50

[[record]]
smiles_data = "CN1CC=C(c2ccc(O)c(O)c2)CC1"
readout_number = 5.60

[[record]]
smiles_data = "COc1cc(C2CCN(C(C)=O)CC2)ccc1O"
readout_number = 5.36

[[record]]
smiles_data = "Oc1ccc(C2CCNCC2)cc1O"
readout_number = 4.42

[[record]]
smiles_data = "CC(=O)N1CC=C(c2ccc(O)c(O)c2)CC1"
readout_number = 6.60

[[record]]
smiles_data = "Oc1ccc(C2=CCNCC2)cc1"
readout_number = 5.47

[[record]]
smiles_data = "C=CC[n+]1ccc(-c2ccccc2)cc1"
readout_number = 2.13

[[record]]
smiles_data = "COc1cc(C2=CCN(C)CC2)ccc1O"
readout_number = 5.24


###

tested-on: UniProt:P11348
assay-explanation: Inhibitory activity against rat striatal synaptosomes […] using 10 uM qBH2 and 50 uM NADH assays
Type: subcellular, Brain
condition-details: read-out: I50
Recorded IC50, one value per entry.
reported-endpoint: IC50 (mM)

[[record]]
smiles_data = "CN1CC=C(c2ccc(O)c(O)c2)CC1"
reported_endpoint = "IC50"
readout_number = 0.0012

[[record]]
smiles_data = "CN1CC=C(c2ccccc2)CC1"
reported_endpoint = "IC50"
readout_number = 8.4


###

Below: a set of entries, each annotated with reported pIC50.
tested-on: Dihydropteridine reductase (Rattus norvegicus)
Sequence (P11348 whole entry): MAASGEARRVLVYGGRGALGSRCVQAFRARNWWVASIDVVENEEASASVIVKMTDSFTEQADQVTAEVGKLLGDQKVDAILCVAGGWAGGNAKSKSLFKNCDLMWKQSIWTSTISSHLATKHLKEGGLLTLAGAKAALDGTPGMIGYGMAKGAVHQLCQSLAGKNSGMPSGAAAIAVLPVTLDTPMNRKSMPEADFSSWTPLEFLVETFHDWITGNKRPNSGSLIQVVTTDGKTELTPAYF
assay-explanation: Inhibitory activity against rat striatal synaptosomes Dihydropteridine reductase (DHPR)
Type: subcellular, Brain
condition-details: read-out: I50
pIC50: −log10 of the molar value.
reported-endpoint: pIC50

[[record]]
smiles_data = "Clc1ccc(C2=CCNCC2)cc1"
readout_number = 2.40

[[record]]
smiles_data = "Oc1ccc(C2=CCNCC2)cc1O"
readout_number = 5.72

[[record]]
smiles_data = "CN1CC=C(c2ccccc2)CC1"
readout_number = 2.34


###

tested-on: Dihydropteridine reductase (Rattus norvegicus, UniProt P11348)
Sequence (P11348 whole entry): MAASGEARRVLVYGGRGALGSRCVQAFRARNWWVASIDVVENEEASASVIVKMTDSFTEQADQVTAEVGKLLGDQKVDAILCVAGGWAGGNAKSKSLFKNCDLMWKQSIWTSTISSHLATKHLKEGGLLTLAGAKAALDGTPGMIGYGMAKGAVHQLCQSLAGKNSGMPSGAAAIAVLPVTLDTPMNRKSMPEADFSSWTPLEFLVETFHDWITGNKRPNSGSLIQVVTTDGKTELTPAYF
reported-endpoint: Ki (µM)

[[record]]
smiles_data = "CN1CCC(c2ccc(O)c(O)c2)CC1"
reported_endpoint = "Ki"
readout_number = 74

[[record]]
smiles_data = "CN1CC=C(c2ccc(O)c(O)c2)CC1"
reported_endpoint = "Ki"
readout_number = 3.3


Source: ChEMBL document CHEMBL1122955
